experiment: Toxicity analysis (LD50) in mice
condition: mouse, in vivo, sc, subcutaneous injection
measurement type: LD50

# compound smiles, meas value
measured = [
    ("COc1ccc2cc3[n+](cc2c1OC)CCc1cc2c(cc1-3)OCO2", "13.9 to 20 mg/kg"),
]

====

experiment: in vivo
condition: rabbit, po, 50 mg/kg

# compound smiles, AUC / ng·h/mL
rows = [
    ("COc1ccc2cc3[n+](cc2c1OC)CCc1cc2c(cc1-3)OCO2", 492),
]

====

experiment: in vivo
Design: species or system canine (beagle)
condition: beagle, dog, 700 mg/kg

# compound smiles, concentration at 3 hours / ng/mL
rows = [
    ("COc1ccc2cc3[n+](cc2c1OC)CCc1cc2c(cc1-3)OCO2", 44.9),
]

====

experiment: Toxicity analysis (LD50) in rats
condition: rat, in vivo, sc, subcutaneous injection

# compound, LD50
records = [
    ("COc1ccc2cc3[n+](cc2c1OC)CCc1cc2c(cc1-3)OCO2 [berberine]", "7970 to 10700 mg/kg"),
]

====

experiment: in vivo
Parameters: species or system canine (beagle)
condition: beagle, dog, 280 mg/kg

# compound smiles, unit, concentration at 2 hours
measured = [
    ("COc1ccc2cc3[n+](cc2c1OC)CCc1cc2c(cc1-3)OCO2", "ng/mL", 31400),
]

====

experiment: Toxicity analysis (LD50) in rats
condition: rat, in vivo, intraperitoneal, peritoneal injection
measurement type: LD50

# compound, meas value
measured = [
    ("COc1ccc2cc3[n+](cc2c1OC)CCc1cc2c(cc1-3)OCO2 [berberine]", "138 to 146 mg/kg"),
]

====

experiment: Toxicity analysis (LD50) in rats
condition: rat, in vivo, intravenous injection
Description: Rats and mice were administered berberine through a variety of techniques, including orally, through subcutaneous injection, peritoneal injection and intravenous injection.

# compound smiles, LD50
measured = [
    ("COc1ccc2cc3[n+](cc2c1OC)CCc1cc2c(cc1-3)OCO2", "46.2 to 63.3 mg/kg"),
]

====

experiment: in vitro
Assay type: in vitro ADME
condition: rabbit
measurement type: fraction unbound

# compound, measurement type, meas value
data = [
    ("COc1ccc2cc3[n+](cc2c1OC)CCc1cc2c(cc1-3)OCO2 [berberine]", "fraction unbound", 0.62),
]
